Reported polymerase ribozyme fitness (log ratio) values for a set of variants
B1: TPR t1 (parent)
chain: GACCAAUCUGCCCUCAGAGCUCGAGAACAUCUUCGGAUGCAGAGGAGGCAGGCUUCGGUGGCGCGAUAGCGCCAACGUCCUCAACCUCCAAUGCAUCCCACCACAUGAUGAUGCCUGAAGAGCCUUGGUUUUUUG

Variants of: B1
assay_comment: polymerase ribozyme fitness, log enrichment relative to wild type (log ratio); higher = more active; in vitro selection for triplet polymerase activity
No unit in the answer, please; the number alone is enough.

In the examples that follow, each entry is paired with its recorded polymerase ribozyme fitness (log ratio).
>>> readout_value("A66C C85A C86A")
-2.7
>>> readout_value("U7G G110U")
-0.723
>>> readout_value("A18U C22A G113A")
-3.79

Now look at this one.
Using known records, supply polymerase ribozyme fitness (log ratio) for G36C G51A C101U
-3.92
